Quick list: GI50 per entry.
Tested on: ACHN
Assay: NCI tumour cell line growth inhibition, 48 h
Active and inactive are the calls of the source. Cut-off read from the data, not from the text of the source: active = GI50 up to about 1.1 µM and inactive = higher.

Param readout = GI50; param system = ACHN; param query = Cc1c(-c2ccc(O)c(O)c2)oc(=O)c2c(O)cccc12 ; response: value
20 µM (inactive)

Next record, please: Cc1cccc(Cn2c3c(c4cc(O)ccc42)C(=O)c2ccccc2C3=O)c1
13.3 µM (inactive)

----------
Test system: NCI-H522
Experiment: NCI tumour cell line growth inhibition, 48 h
Activity calls are given as the source filed them. Rule as the data show it: active = GI50 up to about 1.1 µM and inactive = higher.
Form entry, call: pick from Yes = active, No = inactive

Please let me know the test result on file for CC(=O)NC1C(OCc2ccccc2)OC(CO)C(O)C1OCC(=O)N1CCCC1C(=O)NC(CCC(=O)NCCCCCNc1c2ccccc2nc2cccc([N+](=O)[O-])c12)C(N)=O (stereo not drawn) .
Yes

Here is the next molecule: CC(=O)CC(=O)CCCC(=O)Nc1ccc(Cl)cc1C
No

New cases:
// return assay outcome for CCOC(=O)Nc1nc(-c2ccccc2)c(C)s1
No

Further, for O=C1c2ccccc2C(=O)N1CCc1ncc[nH]1 ?
No
